# SYSTEM_NAME: human NaV 1.8 (Homo sapiens, UniProt Q9Y5Y9)
# Sequence (Q9Y5Y9 whole entry, looked up): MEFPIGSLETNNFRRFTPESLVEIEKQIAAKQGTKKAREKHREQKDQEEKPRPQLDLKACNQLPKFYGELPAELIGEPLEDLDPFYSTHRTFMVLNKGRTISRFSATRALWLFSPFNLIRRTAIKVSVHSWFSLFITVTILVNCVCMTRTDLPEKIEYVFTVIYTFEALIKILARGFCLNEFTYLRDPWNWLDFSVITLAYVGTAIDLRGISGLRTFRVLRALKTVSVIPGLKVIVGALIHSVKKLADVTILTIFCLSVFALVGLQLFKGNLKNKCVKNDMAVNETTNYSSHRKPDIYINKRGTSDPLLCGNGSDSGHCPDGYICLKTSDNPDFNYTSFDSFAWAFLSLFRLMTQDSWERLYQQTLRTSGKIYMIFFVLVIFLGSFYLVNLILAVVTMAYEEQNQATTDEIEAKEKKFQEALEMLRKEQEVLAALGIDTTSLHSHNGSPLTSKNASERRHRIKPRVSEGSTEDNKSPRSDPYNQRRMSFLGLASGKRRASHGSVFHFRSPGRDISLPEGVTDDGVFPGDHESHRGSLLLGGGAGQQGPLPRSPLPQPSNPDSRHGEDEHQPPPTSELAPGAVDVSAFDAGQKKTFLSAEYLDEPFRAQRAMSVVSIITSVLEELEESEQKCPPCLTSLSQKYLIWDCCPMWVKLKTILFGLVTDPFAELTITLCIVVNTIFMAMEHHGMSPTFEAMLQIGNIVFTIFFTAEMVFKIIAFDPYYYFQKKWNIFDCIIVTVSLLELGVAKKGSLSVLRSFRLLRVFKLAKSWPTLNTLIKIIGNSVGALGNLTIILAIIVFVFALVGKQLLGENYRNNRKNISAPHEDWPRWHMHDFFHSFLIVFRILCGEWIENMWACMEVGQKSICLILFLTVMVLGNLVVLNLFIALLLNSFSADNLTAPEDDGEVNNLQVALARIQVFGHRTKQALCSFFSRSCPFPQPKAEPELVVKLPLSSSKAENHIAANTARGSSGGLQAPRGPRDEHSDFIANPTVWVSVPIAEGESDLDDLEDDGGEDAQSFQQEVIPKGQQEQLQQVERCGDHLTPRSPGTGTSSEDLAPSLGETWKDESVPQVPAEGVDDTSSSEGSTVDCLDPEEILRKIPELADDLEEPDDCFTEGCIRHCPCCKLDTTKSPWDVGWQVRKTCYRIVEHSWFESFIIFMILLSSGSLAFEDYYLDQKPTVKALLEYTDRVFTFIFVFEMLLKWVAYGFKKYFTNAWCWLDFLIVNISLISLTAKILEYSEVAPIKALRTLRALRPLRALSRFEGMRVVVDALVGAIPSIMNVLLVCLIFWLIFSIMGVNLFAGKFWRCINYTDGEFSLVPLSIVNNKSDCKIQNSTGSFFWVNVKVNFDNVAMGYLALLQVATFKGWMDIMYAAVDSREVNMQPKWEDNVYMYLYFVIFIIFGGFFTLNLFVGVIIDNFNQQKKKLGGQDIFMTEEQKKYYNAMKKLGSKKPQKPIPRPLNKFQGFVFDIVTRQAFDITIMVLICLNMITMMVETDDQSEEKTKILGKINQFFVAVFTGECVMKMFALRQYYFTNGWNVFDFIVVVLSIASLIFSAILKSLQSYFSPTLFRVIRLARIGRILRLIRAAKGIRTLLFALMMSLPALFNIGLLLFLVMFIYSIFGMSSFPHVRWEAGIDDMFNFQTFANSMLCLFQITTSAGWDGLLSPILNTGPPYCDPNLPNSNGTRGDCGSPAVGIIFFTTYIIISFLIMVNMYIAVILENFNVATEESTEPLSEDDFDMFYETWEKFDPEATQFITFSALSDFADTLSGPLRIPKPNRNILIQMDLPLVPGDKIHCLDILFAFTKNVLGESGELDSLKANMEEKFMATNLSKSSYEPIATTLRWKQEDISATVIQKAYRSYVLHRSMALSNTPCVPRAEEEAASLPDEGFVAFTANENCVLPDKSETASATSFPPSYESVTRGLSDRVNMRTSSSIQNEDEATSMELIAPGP
# PROTOCOL_SUMMARY: E-VIPR assay for detecting and measuring NaV inhibition properties
# Assay type: cell-based
# TEST_PARAMETERS: E-VIPR assay conducted in the presence of human serum; HEK cells expressing truncated human NaV 1.8; read-out: IC50
IC50 strictly less than 7 nM = 1. Otherwise 0.

## Task For this compound, is IC50 lower than 7 nM? NC(=O)c1cc(NC(=O)c2cc(C(F)(F)F)ccc2Oc2ccc(OC3CCCCC3)cc2)ccn1
## Result 0

## Task For this compound, is IC50 lower than 7 nM? COc1cc(OC(F)(F)F)ccc1Oc1ccc(C(F)(F)F)c(Br)c1C(=O)Nc1ccnc(C(N)=O)c1
## Result 1

## Task Hello, is IC50 of the following compound strictly smaller than 7 nM? COc1cc(OC(F)(F)F)ccc1Oc1ccc(C(F)(F)F)c(F)c1C(=O)Nc1cnnc(C(N)=O)c1
## Result 1

## Task Lab note: IC50 threshold 7 nM. Does this compound come in strictly under it? COc1cc(OC(F)(F)F)ccc1Oc1ccc(CC(C)C)c(C)c1C(=O)Nc1ccnc(C(N)=O)c1
## Result 0

## Task Consider the compound Cc1c(F)ccc(Oc2ccc(C(F)(F)F)c(F)c2C(=O)Nc2ccnc(C(N)=O)c2)c1C . Is its IC50 strictly less than 7 nM?
## Result 0
